# TARGET_SYSTEM: T1, human CD112R expressed on Jurkat cells (human, UniProt Q6DKI7 1-326)
# T1 construct: whole, on cells; Used for both Jurkat-CD112R OE cells and wild type Jurkat cells; which cells is said under assay; also called PVRIG; Jurkat-CD112R OE
# T1 sequence (looked up): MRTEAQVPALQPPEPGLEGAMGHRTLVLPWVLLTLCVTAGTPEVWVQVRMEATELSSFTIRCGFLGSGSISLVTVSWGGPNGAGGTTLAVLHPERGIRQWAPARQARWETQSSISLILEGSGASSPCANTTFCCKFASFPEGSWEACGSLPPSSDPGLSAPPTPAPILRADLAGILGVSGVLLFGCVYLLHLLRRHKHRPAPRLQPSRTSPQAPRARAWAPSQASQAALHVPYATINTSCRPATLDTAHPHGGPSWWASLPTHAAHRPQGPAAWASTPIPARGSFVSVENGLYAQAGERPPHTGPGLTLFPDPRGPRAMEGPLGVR
# EXPERIMENTAL_PROTOCOL: flow cytometry, Jurkat cells over-expressing human CD112R, 0.63 ug/mL antibody
MEASURED_METRIC: gMFI (fold increase over isotype)

Before answering, review these 2 worked examples.
BINDER	MEASURED_VALUE
Antibody 35 (antibody, V domains shown, Purified as IgG; compared with an IgG1 isotype control and detected with anti-human IgG Fc; also called antibody clone number 35; clone 35) VH: QVQLVQSGAEVKKPGSSVKVSCKASGGTFSSAAISWVRQAPGQGLEWMGNIIPIVGIANYAQKFQGRVTITADESTSTAYMELSSLRSEDTAVYYCARDTGRGYTRHFWFDPWGQGTLVTVSS VL: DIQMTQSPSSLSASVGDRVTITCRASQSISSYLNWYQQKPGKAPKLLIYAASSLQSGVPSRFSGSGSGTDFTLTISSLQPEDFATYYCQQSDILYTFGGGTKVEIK	32.1 fold increase over isotype
Antibody 33 (antibody, V domains shown, Purified as IgG; compared with an IgG1 isotype control and detected with anti-human IgG Fc; also called antibody clone number 33; clone 33) VH: QVQLVQSGAEVKKPGSSVKVSCKASGGTFGNYAISWVRQAPGQGLEWMGGIIPIPGIANYAQKFQGRVTITADESTSTAYMELSSLRSEDTAVYYCARDTGRGYTRHFWFDPWGQGTLVTVSS VL: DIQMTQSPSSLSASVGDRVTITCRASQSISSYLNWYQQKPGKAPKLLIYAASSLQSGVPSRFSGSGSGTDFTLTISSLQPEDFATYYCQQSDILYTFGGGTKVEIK	34.2 fold increase over isotype

As a next step, examine the binder that follows.
# input May I ask what gMFI (fold increase over isotype) has been recorded for Antibody 46 (antibody, V domains shown, in the mouse tumor studies it was used as mouse IgG2a; also called antibody clone number 46; clone 46) VH: EVQLVESGGGLVQPGRSLRLSCTASGFTFGDYAMSWFRQAPGKGLEWVGFIGSKAYGGTTEYTASVKGRFTISRDGSKSIAYLQMNSLKTEDTAVYYCARGPRRYTYGMDVWGQGTTVTVSS VL: DIQMTQSPSSLSASVGDRVTITCRASQSISSYLNWYQQKPGKAPKLLIYAASSLQSGVPSRFSGSGSGTDFTLTISSLQPEDFATYYCQQSSTPLTFGGGTKVEIK ?
# output 23.8 fold increase over isotype
